// cross-source set; read-out = pIC50; system = Heparanase (Homo sapiens, UniProt Q9Y251)
pIC50: −log10 of the molar value.

[
  {
    "structure.as.smiles": "COc1ccccc1NC(=O)/C=C/c1ccc(-c2nc3cc(CC(=O)O)ccc3o2)cc1",
    "metric": "pIC50",
    "recorded.measurement": "< 5.00"
  },
  {
    "structure.as.smiles": "O=C(O)[C@H]1O[C@@H](O[C@H]2[C@H](O)[C@@H](NS(=O)(=O)O)[C@@H](OCCNS(=O)(=O)O)O[C@@H]2COS(=O)(=O)O)[C@H](O)[C@@H](O)[C@@H]1O[C@H]1O[C@H](COS(=O)(=O)O)[C@@H](O)[C@H](O)[C@H]1NS(=O)(=O)O",
    "metric": "pIC50",
    "recorded.measurement": 6.41
  },
  {
    "structure.as.smiles": "COc1ccc(CNc2ccc(-c3nc4ccccc4[nH]3)cc2)cc1Br",
    "metric": "pIC50",
    "recorded.measurement": "< 4.82"
  }
]

**Query** Lookup: pIC50 / Heparanase (Homo sapiens, UniProt Q9Y251) / "CCCCCCCCCCCCCCCc1cc(O[C@@H]2O[C@H](C(=O)O)[C@@H](O)[C@H](O)[C@H]2O)cc(O)c1C(=O)Oc1cc(C)c(C(=O)O)c(O)c1"
**Result** 5.04
